- Measurement Notes: soluble on expression in E. coli; label from the status in PepcDB or PDB records

| Residue String | soluble on expression in E. coli |
| --- | --- |
| MGSDKIHHHHHHMKAKAAFFDIDGTLYREGLISEVFKKLIKYEIIDEEKWYKEVRPEFEKWDNRKGDYDDYLLKMTEIYVDALNGLSKSQVEFIASQVVNQKGERVYTYTRDRIKWHKERGHKIITISGSPIELVRNMAEKYGFDDYRGAEYLLDENDVYTGEVIPMWDSKSKERAVHELEAKYNIDLGESYAYGDTSGDLTMLKMVGNPVCINPTKELVKEILSAAAVKNKIRIIVERKDMIYKISSRCLECDCEFVL | not soluble |
| MEGTLSFVSGFAPAVYRRELFRHRCVTTAPEARAWPRLGLLRANSGARLSRVDITPEIYKRLVSMAKRTEGNFSAVAGAILESYLTAATNRDLRAVIFDMDGVLCDSERLSRAAGVEYFRRYHGVWPTEKDFADFAGTGEAAFLSGVARRYSVKDFDVNKAKEGFFNIYVNEYVSALEPFEGVREFIQQIKTMGLKTALASSADAIKVHANLSAIGFERDMFDFVTRSDEIANKKPAPDIFLAAAEGLGVPPESCVVIEDAPAGVLAAKRARMRCVAVATSVSAQLLWDAGADIVRPAPQYIMLDDIVITDDADASAPASASQE | soluble |
| GPGSMHSTPAKEAEAEGYMRSGKKHLQKKLLQFKANYGGAAEDFDKAARIYTNLRNYPKAREAWTQACEAHSKAHNDFNAANSMEKLGDLASQCICESQSTMSSGSTAGMTAQLSEHLFQDAIHAYEEASKLYGVATNGSKQAAVLKKAADLISRSLATVHYRRPGTSGATTVDTAYLQKEYKRIIPELIELMERNWAATESKPFGLPDIYRSHVLLHLRSGDVEGAVHAEKRMIGIVSTSPADGTYDDSKNLFRILNQPSNAAKVGLEIVVLCLSTSVDDGYTWANIEMGRLGAVFGFCGSSEERAAAALLAAYAERDEDALQEALKTNTCFNFLAADVSRIAKKLTLGSKGHSKETGASVAAAGGPERSAAPPSSSQAPVDASETDSEDLR | soluble |
| MNAGKKGVIYTCITGGYDELLNHTFISPEWDYVCFSDDMGINNEKNAQWEIRPLRFEKLDDVRNQRWHKLHPHLLFPESGLSLWVDGNVDILDGEIFHDIDRALNANLLIAPSLHPERNCIYDEFDACRQLGKDDPDVMGRQEYLIKKDGFPKAKGLFETNIIFRCHSHPMVITIMEEWWYWVEQYSRRDQLGFTYVLWKNNYTVEPLSPVSYRFSPGVRFRYGAFHITKEQLIKEKAALEIKVQRFEALICGRLVKVLYKIRKSTVKRWCRVKMQLLNSLCCRKLEHHHHHH | not soluble |
| MGSDKIHHHHHHAQTLPFRLSKGAGTFRLGVVCGNESCWLDQCSVKKKGQAYTIKDKLWKEGEIKLIVCPLTDSNGFIMEVSGERLPEEFKLCWAFGACDGADDSAVTDNSIPVASCFHNVFSIEGNAFTTYYGESMKLRTVHGVSPIGSEIRLSDGHKQASPLALFNSGKKTDAPVISALCPWKPQEKLYFCFYQRGDYNYFMLPGLFGKEHKTRSK | not soluble |
| MPGTRFSGKVVLISGSSKGIGQATAVKFAAEGAKIVLNGRSADDVEKTRKLCMEVGAKPWDLLPTVGDITNEDFVKMMVNTVIHNFGKLDILINNAGTLEVDMTGKEGWEMGVDVMDRSWNSNFKSVLMLTQAAMPHLIKTKGDIVNVSTFLSSGPIGVMSMPYYAVPKAALDQMSRSMAHEYMLKGVRLNTVNPGLVSTSFFARLPGVGDDNARKMENYVQSKTEYIPLGRVCQASDVAETILFLADRKVSECIVGQSIIIDGGSRLCCNIDMSDFKEQMAKA | not soluble |
| MSFNPDYESVAKAFIQHYYSKFDVGDGMSRAQGLSDLYDPENSYMTFEGQQAKGRDGILQKFTTLGFTKIQRAITVIDSQPLYDGSIQVMVLGQLKTDEDPINPFSQVFILRPNNQGSYFIGNEIFRLDLHNN | not soluble |
| MAHTRSLQMLKAHSTRSALRQPQKKETGTNGNDPSVAPKNAQADSGKDERRGSQAMGWSCFGGCIKDEIFSVFGIGRKIIGRV | not soluble |
| MQTLGFRRPNQVREAVYRHLKDLLLSGRFSPGERLSEPLLAQELGVSRTPVREALMRLAEEGLVELVPGKGARVRVFAPEEVEEVYGVRALLEGEAAREAALRATPWELAELERLLQAIDEAPREDYPEQMRRDLEFHRALVRLSGNRTLYRLYEDLLATLALARSALPTLSQDEATRREHRAILEALLRRDPEEARRAVEAHVFRFRDLVVGRLREEGG | soluble |
| MAHHHHHHMYGPSFSQTVLVAATPVVMKSPPTFFKGGNFRRISRRSTLKTTPERVPRNMYQFIVGSPSGELGHHSMDVMVSVQETVIDSGITQMCCSMLKNRRRRSLWRVTYVFGNSGDTLYNCRALSIDGLARRSMRPSPVPPDKLLSSAALIPFSVPRDFFIVFN | not soluble |
| MANSAGSMADNSKTRVVVGMSGGVDSSVTALLLKEQGYDVIGIFMKNWDDTDENGVCTATEDYKDVAKVADQIGIPYYSVNFEKEYWDRVFEYFLAEYRLGRTPNPDVMCNKEIKFKAFLDYAMQLGADYVATGHYAQVETDENGVVHMLRGIDNNKDQTYFLSQLSQAQLAKTMFPLGGMEKSEVRAIAERAGLATAKKKDSTGVCFIGEKNFKEFLSNYLPAKKGNMVTEDGEIKGQHDGLMYYTIGQRQGLGIGGGGKTQEPWFVIGKDLTTNTLYVGQGFHHEKLYATHLEASEVHFTVDTPMPKEFDCTAKFRYRQADIPVHVSLSEDGTKATVTFKEPARAVTPGQAVVFYDGMECLGGGLIDRAYQDEKELQYVLEHHHHHH | not soluble |
